// provenance: the Deep4Chem optical property database

Below is a list of entries, each paired with its recorded emission maximum value.
# EXPERIMENT_SUMMARY: solvent given as SMILES
# TEST_CONDITIONS: in c1cc(-c2cccc(-n3c4ccccc4c4ccccc43)c2)cc(-n2c3ccccc3c3ccccc32)c1

# CHEMICAL_STRUCTURE, emission maximum [nm]
data = [
    ("CC1(C)c2ccccc2N(c2ccc(-c3nc(C#N)c(C#N)nc3-c3ccc(N4c5ccccc5C(C)(C)c5ccccc54)cc3)cc2)c2ccccc21", 570),
    ("N#Cc1cc(-n2c3ccccc3c3ccccc32)c(C#N)cc1-n1c2ccccc2c2ccccc21", 370),
    ("N#Cc1c(-n2c3ccccc3c3ccccc32)c(-n2c3ccccc3c3ccccc32)c(-n2c3ccccc3c3ccccc32)c(-n2c3ccccc3c3ccccc32)c1-n1c2ccccc2c2ccccc21", 486),
    ("N#Cc1c(-n2c3ccccc3c3ccccc32)nc(-n2c3ccccc3c3ccccc32)c(C#N)c1-c1ccccc1", 475),
    ("CC(C)c1cc(C(C)C)c(B2c3cc(N4c5ccccc5Oc5ccccc54)ccc3N(c3ccccc3)c3ccc(N4c5ccccc5Oc5ccccc54)cc32)c(C(C)C)c1", 512),
    ("O=C(c1ccncc1)c1ccc(-n2c3ccccc3c3cc(-n4c5ccccc5c5ccccc54)ccc32)cc1", 475.23),
    ("O=C(c1ccncc1)c1ccc(-n2c3ccc(-n4c5ccccc5c5ccccc54)cc3c3cc(-n4c5ccccc5c5ccccc54)ccc32)cc1", 487.5),
    ("c1ccc(-c2nc(-c3ccccc3)nc(-c3ccc(-c4ccc5c(c4)C4(c6ccccc6-c6ccccc64)c4cc(-c6ccc(-c7nc(-c8ccccc8)nc(-c8ccccc8)n7)cc6)ccc4N5c4ccccc4)cc3)n2)cc1", 469),
]

###

Below is a list of entries, each paired with its recorded emission maximum value.
# EXPERIMENT_SUMMARY: solvent given as SMILES
# TEST_CONDITIONS: in O

# COMPOUND, UNIT_INFO, emission maximum
measured = [
    ("[NH3+]C(Cc1c[nH]c2ccccc12)C(=O)[O-] (stereo not given)", "nm", 350),
    ("CC/[NH+]=c1\\cc2oc3cc(NCCC(=O)O)c4ccccc4c3nc-2cc1C", "nm", 652),
    ("O=c1ccc2cc3c(cc2o1)OCC3", "nm", 410),
    ("Cc1ccc(/C=N/c2cc(C(C)C)c(O)cc2C)cc1", "nm", 441),
    ("COc1ccc2c(c1)[n+]([O-])nc(N)[n+]2[O-]", "nm", 542),
    ("CC1=N/C(=C\\c2ccccc2N(C)C)C(=O)N1C", "nm", 426),
    ("[NH3+]C(Cc1ccc(O)cc1)C(=O)[O-] (stereo not given)", "nm", 304),
    ("CN1/C(=C/C=C/C2=[N+](CCCCCC(=O)O)c3ccc(S(=O)(=O)[O-])cc3C2(C)C)C(C)(C)c2cc(S(=O)(=O)[O-])ccc21", "nm", 562),
    ("CC[N+]1(CC)CN2C(=N1)C(C(=O)O)=Cc1c(OC)ccc(OC)c12", "nm", 515),
    ("CN(C)c1ccc(/C=C/c2cc[n+](CCC[n+]3ccc(/C=C/c4ccc(N(C)C)cc4)cc3)cc2)cc1", "nm", 597),
]

###

# EXPERIMENT_SUMMARY: solvent given as SMILES
# TEST_CONDITIONS: in ClCCl
Below is a list of entries, each paired with its recorded emission maximum value.
METRIC_NAME: emission maximum (nm)

# COMPOUND, RESULT_VALUE
data = [
    ("CCC(C)Nc1c2ccc(=[N+]3CCCCC3)cc-2oc2cc(N3CCCCC3)ccc12 (stereo not given)", 537),
    ("COc1ccc(C2=Cc3ccccc3[Si]2(c2ccccc2)c2ccccc2)cc1", 418),
    ("CCN(CC)c1ccc2cc(/C=C/C(=O)/C=C(O)/C=C/c3cc4ccc(N(CC)CC)cc4oc3=O)c(=O)oc2c1", 593),
    ("c1ccc(N(c2ccccc2)c2ccc3ccc4c(N(c5ccccc5)c5ccccc5)ccc5ccc2c3c54)cc1", 472),
    ("COc1ccc(N(c2ccccc2)c2ccc3ccc4c(N(c5ccccc5)c5ccc(OC)cc5)ccc5ccc2c3c54)cc1", 513),
    ("COc1c2ccccc2c(OC)c2c1c1ccc(F)cc1n2C", 411),
    ("CCOc1cccc(-c2nc3c(c4c2-c2ccccc2CC4)-c2ccccc2CC3)c1O", 406),
    ("COc1ccc(-c2nc(C(C)=O)c(C)o2)cc1", 351),
    ("COc1ccc(C2=Cc3ccccc3P2(=O)c2ccccc2)cc1 (stereo not given)", 454),
    ("CCOC(=O)COc1ccc(/C=C/C2=C3C(C)=CC(/C=C/c4ccc(OCC(=O)OCC)cc4)=[N+]3[B-](F)(F)n3c2c2ccccc2c3-c2[nH]c(C)cc2C)cc1", 733),
    ("Cc1ccc(-c2c3nc(c(-c4ccc(C)cc4)c4ccc([nH]4)c(-c4ccc(OC(=O)C(C)c5ccc(CC(C)C)cc5)cc4)c4nc(c(-c5ccc(C)cc5)c5ccc2[nH]5)C=C4)C=C3)cc1 (stereo not given)", 652),
    ("Cc1cccc(-c2c3ccccc3c(-c3cccc(C)n3)c3ccccc23)n1", 428),
    ("C(=C\\c1ccncn1)/c1ccc(N2CCCCC2)cc1", 498),
    ("COc1ccc(/C=C/c2ncc(-c3ccccc3)o2)cc1OC", 420),
    ("CCn1c2ccccc2c2cccc(N(c3ccccc3)c3ccccc3)c21", 423),
    ("CN(C)c1ccc(C#Cc2ccc(-c3cc(N(C)C)c4ccccc4c3)cc2)cc1", 457),
    ("CN(C)c1ccc(-c2c(/C=C3/C=Cc4ccccc4N3Cc3ccccc3)c(=O)c2=O)cc1", 586),
    ("CCC1=C(C)C2=C(c3ccc(-c4c5ccccc5c(-c5ccccc5)c5ccccc45)cc3)c3c(C)c(CC)c(C)n3[B-](F)(F)[N+]2=C1C", 540),
    ("CCCCN(CCCC)c1ccc(C#Cc2cc(C#Cc3ccc([N+](=O)[O-])cc3)c(C#Cc3ccc(N(CCCC)CCCC)cc3)cc2C#Cc2ccc([N+](=O)[O-])cc2)cc1", 557),
    ("CCCCCCc1ccc2c3c(ccc2c1)O[B-](F)(F)[N+](c1ccc([N+]2=Cc4c(ccc5cc(CCCCCC)ccc45)O[B-]2(F)F)cc1)=C3", 507),
    ("O=c1c2cc(Br)ccc2nc2n1[B-](F)(F)[n+]1ccccc1-2", 448),
    ("CN(C)c1ccc(C#Cc2cc(C#Cc3ccc(N(C)C)cc3)c3ccc4c(C#Cc5ccc(N(C)C)cc5)cc(C#Cc5ccc(N(C)C)cc5)c5ccc2c3c54)cc1", 562),
    ("COc1cc(OC)cc(C2=C3C(C)=C(I)C(/C=C/c4c[nH]c5ccc([N+](=O)[O-])cc45)=[N+]3[B-](F)(F)n3c(/C=C/c4c[nH]c5ccc([N+](=O)[O-])cc45)c(I)c(C)c32)c1", 721),
    ("CCCCOc1ccc(-c2oc3cc4n(c3c2-c2ccc(OCCCC)cc2)[B-](F)(F)[N+]2=Cc3cc5oc(-c6ccc(OCCCC)cc6)c(-c6ccc(OCCCC)cc6)c5n3[B-](F)(F)[N+]2=C4)cc1", 646),
    ("CC1(C)c2cc(-c3ccc4ccc5cccc6ccc3c4c56)ccc2-c2ccc(-c3ccc4ccc5cccc6ccc3c4c56)cc21", 421),
    ("Oc1ccc(Br)cc1-c1nc2c(c3c1-c1ccccc1CC3)-c1ccccc1CC2", 421),
    ("c1cc2cccc3c4cccc5cccc(c(c1)c23)c54", 448),
    ("CC(=O)c1ccc2ccc3cccc4ccc1c2c34", 396),
    ("CC1=C2C=CC=[N+]2[B-](F)(F)n2cccc21", 507),
    ("S=P1(c2ccccc2)C(c2ccccc2)=Cc2cc3ccccc3cc21 (stereo not given)", 425),
    ("CCc1c(C)[nH]c(C2=[N+]3C(=Cc4c(C)cc(C)n4[B-]3(F)F)c3ccccc32)c1C", 640),
    ("CCOC(=O)CC[N+]1=c2cc3c(cc2CCC1)=Cc1c(c2ccc(N(C)C)cc2oc1=O)O3", 637),
    ("CCN(CC)c1ccc2cc(C#N)/c(=N\\C(=O)c3ccc(C)cc3)oc2c1", 502),
    ("CN(C)c1ccc(C2=Cc3cc(Cl)nc[n+]3[B-](F)(F)O2)cc1", 529),
    ("Oc1ccc(/N=C/c2ccccc2Oc2ccccc2)cc1", 414),
]

###

Below is a list of entries, each paired with its recorded emission maximum value.
# EXPERIMENT_SUMMARY: solvent given as SMILES
# TEST_CONDITIONS: in CO

# CHEMICAL_STRUCTURE, emission maximum
measured = [
    ("c1cc2ccc3cc4cccc5ccc6cc(c1)c2c3c6c54", "436 nm"),
    ("O=C(O)c1ccccc1Nc1cccc(C(F)(F)F)c1", "428 nm"),
    ("CNCCCN1c2ccccc2CCc2ccccc21", "356 nm"),
    ("Cc1ccc(C2=C3C=C(I)C=[N+]3[B-](F)(F)n3cc(I)cc32)cc1", "572 nm"),
    ("C(/C=C/c1ccc(-n2c3ccccc3c3ccccc32)cc1)=C\\c1ccncc1", "496 nm"),
    ("CC[n+]1c(C=C2C(=O)C(C=C3N(C)c4ccc(Cl)cc4C3(C)C)=C2[O-])[se]c2ccccc21", "662 nm"),
    ("Cc1ccc(C2=[N+]3C(=Cc4ccc(C)n4[B-]3(F)F)c3ccccc32)[nH]1", "616 nm"),
    ("Cc1ccc(-c2nc(-c3ccc(C#N)cc3)[nH]c2-c2ccc(C)cc2)cc1", "447 nm"),
    ("CCOC(=O)CC[N+]1=c2cc3c(cc2CCC1)=Cc1c(c2ccc(N(C)C)cc2oc1=O)O3", "641 nm"),
    ("CCN(CC)c1ccc2cc(-c3csc(N)c3C#N)c(=O)oc2c1", "514 nm"),
]
